TEST_SUMMARY: HPLC lipophilicity on IAM (immobilized artificial membrane, phosphatidylcholine) stationary phase
Type: physicochemical
CONDITION_SUMMARY: Table S2; ACN 0.15 v/v in mobile phase, pH 7.4
Output 1 for records whose Log k IAM is lower than 1, -1 for records at or above 1.

Prompt: Could you please tell me whether Log k IAM recorded for O=C(COc1ccccc1)NNC(=S)Nc1cccc2ccccc12 [Compound 18] is less than 1?
Completion: 1

Prompt: Could you please tell me whether Log k IAM recorded for O=C(COc1ccccc1)NNC(=S)Nc1ccc(Cl)cc1Cl [Compound 13] is less than 1?
Completion: -1

Prompt: Could you please tell me whether Log k IAM recorded for CSc1ccc(NC(=S)NNC(=O)COc2ccccc2)cc1 [Compound 17] is less than 1?
Completion: 1

Prompt: Could you please tell me whether Log k IAM recorded for O=C(COc1ccccc1)NNC(=S)Nc1cccc(I)c1 [Compound 8] is less than 1?
Completion: -1

Prompt: Could you please tell me whether Log k IAM recorded for O=C(COc1ccccc1)NNC(=S)Nc1ccccc1F [Compound 2] is less than 1?
Completion: 1

Prompt: Could you please tell me whether Log k IAM recorded for O=C(COc1ccccc1)NNC(=S)Nc1ccccc1Cl [Compound 3] is less than 1?
Completion: 1
